# assayed_system: FAAH (Rattus norvegicus)
# Construct: Frozen brains (without cerebellum) from Wistar rats were used; from tissue; host or cells: Wistar rat brain (without cerebellum), washed membrane pellets
# Sequence (P97612 1-579): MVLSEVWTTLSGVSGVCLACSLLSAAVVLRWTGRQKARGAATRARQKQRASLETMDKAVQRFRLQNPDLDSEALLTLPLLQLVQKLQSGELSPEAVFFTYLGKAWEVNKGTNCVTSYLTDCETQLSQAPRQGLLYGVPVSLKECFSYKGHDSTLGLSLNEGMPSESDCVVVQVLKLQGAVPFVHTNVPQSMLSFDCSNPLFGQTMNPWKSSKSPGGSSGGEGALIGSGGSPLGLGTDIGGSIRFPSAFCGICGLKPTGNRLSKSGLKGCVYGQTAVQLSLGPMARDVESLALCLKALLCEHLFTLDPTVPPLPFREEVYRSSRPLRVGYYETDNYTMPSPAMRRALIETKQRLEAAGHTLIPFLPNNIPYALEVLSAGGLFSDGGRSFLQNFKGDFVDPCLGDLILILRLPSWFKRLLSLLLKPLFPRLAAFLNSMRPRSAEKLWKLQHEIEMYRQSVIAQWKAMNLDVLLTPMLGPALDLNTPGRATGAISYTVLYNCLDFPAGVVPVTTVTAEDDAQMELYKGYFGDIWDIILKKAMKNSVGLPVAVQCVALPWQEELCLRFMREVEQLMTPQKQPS
# measurement_description: In vitro FAAH activity in rat brain membranes, 3H-AEA substrate, % of control
# Assay type: biochemical, Wistar rats
# recorded_conditions: 100 nM test compound, low value = strong inhibitor
assay_metric: In Vitro FAAH activity, 100 nM

# example entries with known answers
(Q) Supply measured In Vitro FAAH activity, 100 nM of CN1CCN(C2CCN(C(=O)n3nnc4ccccc43)CC2)CC1.Cl [Compound 122] in your reply.
(A) 93 % of control

(Q) Supply measured In Vitro FAAH activity, 100 nM of COc1ccccc1-c1cn(C(=O)N(C)C2CCCCC2)cn1 [Compound 271] in your reply.
(A) 55.8 % of control

(Q) Supply measured In Vitro FAAH activity, 100 nM of NC(=O)c1ccc(Oc2cccc(-c3ncn(C(=O)N4CCN(c5ccccc5)CC4)n3)c2)cc1 [Compound 208] in your reply.
(A) 0.2 % of control

(Q) Supply measured In Vitro FAAH activity, 100 nM of COc1ccc(OCCN(C)C(=O)n2nnc3ccccc32)cc1 [Compound 157] in your reply.
(A) 0 % of control

(Q) Supply measured In Vitro FAAH activity, 100 nM of COc1cccc(-c2cccc(-c3cn(C(=O)N(C)C4CCCCC4)cn3)c2)c1 [Compound 240] in your reply.
(A) 22.4 % of control

Others:
(Q) Supply measured In Vitro FAAH activity, 100 nM of CN(C(=O)n1nnc2ccccc21)c1ccc(N2CCOCC2)cc1 [Compound 76] in your reply.
(A) 97.1 % of control

(Q) Supply measured In Vitro FAAH activity, 100 nM of CN(C(=O)n1cnc(-c2cccc(O)c2)c1)c1ccccc1 [Compound 40] in your reply.
(A) 88.8 % of control

(Q) Supply measured In Vitro FAAH activity, 100 nM of CC1(C)COCN1C(=O)n1nnc2ccccc21 [Compound 71] in your reply.
(A) 2.3 % of control

(Q) Supply measured In Vitro FAAH activity, 100 nM of O=C(N1CCN(c2ccccc2)CC1)n1cnc(-c2cccc(-c3ccccc3)c2)c1 [Compound 196] in your reply.
(A) 2.5 % of control

(Q) Supply measured In Vitro FAAH activity, 100 nM of C[C@@H]1CN(C(=O)n2nnc3ccccc32)C[C@@H](C)O1 [Compound 193] in your reply.
(A) 110.2 % of control

(Q) Supply measured In Vitro FAAH activity, 100 nM of O=C(N1CCN(Cc2ccccc2)CC1)n1cnc(-c2ccccc2)c1 [Compound 102] in your reply.
(A) 0.9 % of control

(Q) Supply measured In Vitro FAAH activity, 100 nM of COc1ccc(-c2ncn(C(=O)N3CCN(c4ccc(F)cc4)CC3)n2)cc1 [Compound 211] in your reply.
(A) 1.9 % of control

(Q) Supply measured In Vitro FAAH activity, 100 nM of CN(Cc1ccc2ccccc2c1)C(=O)n1nnc2ccccc21 [Compound 131] in your reply.
(A) 0 % of control

(Q) Supply measured In Vitro FAAH activity, 100 nM of CCC1CN(C(=O)n2cnc(-c3ccccc3)c2)C(C)(C)O1 (stereo not shown) [Compound 270] in your reply.
(A) 113.1 % of control

* * *

# assayed_system: FAAH (Rattus norvegicus, UniProt P97612)
# Construct: Frozen brains (without cerebellum) from Wistar rats were used; from tissue; host or cells: Wistar rat brain (without cerebellum), washed membrane pellets
# Sequence (P97612 1-579): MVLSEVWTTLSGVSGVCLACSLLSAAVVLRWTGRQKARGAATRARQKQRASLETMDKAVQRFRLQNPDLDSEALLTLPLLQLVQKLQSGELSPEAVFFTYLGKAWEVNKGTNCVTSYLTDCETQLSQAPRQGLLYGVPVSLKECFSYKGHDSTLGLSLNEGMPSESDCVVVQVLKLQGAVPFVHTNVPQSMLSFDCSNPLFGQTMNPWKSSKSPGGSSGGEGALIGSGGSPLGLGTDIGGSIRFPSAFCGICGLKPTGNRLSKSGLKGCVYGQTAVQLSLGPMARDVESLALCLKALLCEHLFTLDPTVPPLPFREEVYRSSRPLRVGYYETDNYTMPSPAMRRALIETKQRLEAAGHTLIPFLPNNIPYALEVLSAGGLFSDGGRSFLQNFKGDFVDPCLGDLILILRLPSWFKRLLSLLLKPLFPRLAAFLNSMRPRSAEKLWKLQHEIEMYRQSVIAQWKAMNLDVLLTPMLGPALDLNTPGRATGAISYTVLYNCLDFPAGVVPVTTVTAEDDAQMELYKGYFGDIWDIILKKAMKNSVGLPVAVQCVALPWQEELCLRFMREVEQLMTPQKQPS
# measurement_description: In vitro FAAH activity in rat brain membranes, 3H-AEA substrate, % of control
# Type: biochemical, Wistar rats
# recorded_conditions: 100 nM test compound, low value = strong inhibitor
Counter-ions that a name gives are not always drawn.
assay_metric: In Vitro FAAH activity, 100 nM

(Q) Supply measured In Vitro FAAH activity, 100 nM of `COc1cccc(OC2CCN(C(=O)n3nnc4ccccc43)CC2)c1` in your reply.
(A) 0 % of control

(Q) Supply measured In Vitro FAAH activity, 100 nM of `CN(C)C(=O)n1cnc(-c2ccc(Oc3ccc(C(N)=O)cc3)cc2)n1` in your reply.
(A) 77.1 % of control

(Q) Supply measured In Vitro FAAH activity, 100 nM of `COc1cc(OC)cc(N(C)C(=O)n2nnc3ccccc32)c1` in your reply.
(A) 76.3 % of control

(Q) Supply measured In Vitro FAAH activity, 100 nM of `CN(C(=O)n1cnc(-c2cccc(-c3cccc(C(N)=O)c3)c2)c1)C1CCCCC1` in your reply.
(A) 1.2 % of control

(Q) Supply measured In Vitro FAAH activity, 100 nM of `Cc1c(-c2ccccc2)ncn1C(=O)N1COCC1(C)C` in your reply.
(A) 92.1 % of control

(Q) Supply measured In Vitro FAAH activity, 100 nM of `CC1(C)COCN1C(=O)n1nnc2ccc(Br)cc21` in your reply.
(A) 0 % of control

(Q) Supply measured In Vitro FAAH activity, 100 nM of `CC1(C)COCN1C(=O)n1cnc(-c2ccc(F)cc2F)n1` in your reply.
(A) 102 % of control

(Q) Supply measured In Vitro FAAH activity, 100 nM of O=C(N[C@H]1CN2CCC1CC2)n1nnc2ccccc21 [Compound 142, hydrochloride] in your reply.
(A) 101.8 % of control

(Q) Supply measured In Vitro FAAH activity, 100 nM of `CN(C(=O)n1cnc(-c2ccc(F)cc2F)n1)c1ccc(F)cc1F` in your reply.
(A) 89.5 % of control

* * *

# assayed_system: FAAH (Mus musculus, UniProt O08914)
# Construct: A fragment of liver, left lung lobe and brain without cerebellum were removed; from tissue; host or cells: male NMRI mice; brain (without cerebellum) and liver homogenates
# Sequence (O08914 whole entry, the tested form may be a part): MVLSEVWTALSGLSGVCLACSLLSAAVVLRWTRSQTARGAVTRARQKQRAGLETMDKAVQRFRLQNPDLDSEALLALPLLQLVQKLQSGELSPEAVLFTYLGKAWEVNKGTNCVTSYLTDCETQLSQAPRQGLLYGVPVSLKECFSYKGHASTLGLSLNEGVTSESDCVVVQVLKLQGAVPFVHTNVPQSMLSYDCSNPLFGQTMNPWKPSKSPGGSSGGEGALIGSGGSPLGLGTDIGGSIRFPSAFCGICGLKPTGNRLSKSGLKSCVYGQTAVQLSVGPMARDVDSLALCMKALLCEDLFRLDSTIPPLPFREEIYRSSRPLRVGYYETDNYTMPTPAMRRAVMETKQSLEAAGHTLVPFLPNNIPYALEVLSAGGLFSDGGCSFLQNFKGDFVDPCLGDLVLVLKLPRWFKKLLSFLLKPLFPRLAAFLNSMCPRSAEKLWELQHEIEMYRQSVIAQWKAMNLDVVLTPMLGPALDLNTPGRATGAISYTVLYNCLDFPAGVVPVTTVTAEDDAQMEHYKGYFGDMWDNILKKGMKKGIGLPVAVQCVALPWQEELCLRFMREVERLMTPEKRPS
# measurement_description: In vivo FAAH inhibition after oral dosing, remaining activity in brain homogenate (BRh, central nervous tissue)
# Parameters: species or system NMRI mice
# recorded_conditions: brain homogenate, 3 mg/kg, 8 h
Listed here: items and their measured In Vivo BRh 3 mg/kg 8 h, remaining FAAH activity.

(Q) Supply measured In Vivo BRh 3 mg/kg 8 h, remaining FAAH activity of CC1(C)COCN1C(=O)n1cnc2ccccc21 [Compound 219] in your reply.
(A) 86.8 % of control

Others:
(Q) Supply measured In Vivo BRh 3 mg/kg 8 h, remaining FAAH activity of COc1ccc(-c2ncn(C(=O)N3COCC3(C)C)n2)cc1 [Compound 188] in your reply.
(A) 78.7 % of control

(Q) Supply measured In Vivo BRh 3 mg/kg 8 h, remaining FAAH activity of COc1ccc(-c2cn(C(=O)N3COCC3(C)C)cn2)cc1OC [Compound 216] in your reply.
(A) 29.3 % of control

Just for reference, patent US9353082B2 is where these values come from.
